Reference for the values: PubChem BioAssay

# assay-overview: S. cerevisiae RM11-1a growth modifiers, primary screen, strain RM11-1a, OD600, basal, 24 h (AID 1177);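 further: cultures grown under basal conditions with no added stressor; test concentration not given here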
# applied-conditions: OD600, 24 h, higher = more signal, called active from +8 up or from −8 down
Assign Condition met to entries whose z-score meets or exceeds 1; assign Condition not met to the rest.

compound=C=CCN1C(=O)[C@@]2(O[C@@H](CCO)[C@H]([Si](C)(C)c3ccc(OC)cc3)[C@H]2C)c2cc(NC(=O)c3ccc(OC)cc3)ccc21 label_value="Condition met"
compound="CCN(CC)c1ccc(N2CC=CC34O[C@@H]5/C=C\\CCCOC(=O)C5[C@H]3C(=O)N(CCO)[C@@H]4C2=O)cc1 (stereo partly specified)" label_value="Condition not met"
compound="O=C(C1N=C(c2ccc(OCCCO)cc2)N(c2ccccc2)O1)N1CCOCC1 (stereo unspecified)" label_value="Condition not met"
compound=COCCCNC(=O)[C@@]1(Cc2ccccc2N=[N+]=[N-])N=C(c2ccc(OCCCO)cc2)O[C@H]1c1ccccc1N=[N+]=[N-] label_value="Condition met"
compound=CC(C)C(=C=CC[C@@H](O)c1ccccc1OCCO)CCO label_value="Condition not met"
compound=CCOC(=O)C=Cc1cc([N+](=O)[O-])ccc1O label_value="Condition not met"
compound=COc1ccc([Si](C)(C)[C@H]2[C@H](CC(=O)N3Cc4ccccc4C[C@H]3CO)O[C@@]3(C(=O)N(Cc4ccc(N5CCC5=O)cc4)c4ccccc43)[C@@H]2C)cc1 label_value="Condition met"
compound=C=CCOC(=O)[C@@H]1[C@H]2C(=O)O[C@H](c3ccccc3)[C@H](c3ccccc3)N2[C@H](c2ccc(OCCOC(=O)[C@@H]3C[C@@H]4C(=O)N[C@@H](CCCC[N+](C)(C)C)C(=O)N4[C@@H]3c3cccc(OCCO)c3)cc2)[C@@]12C(=O)Nc1ccc(I)cc12 label_value="Condition met"
compound=C=C/C=C/[C@H]1C(=C)CN([C@@H](Cc2ccccc2)C(=O)OC)[C@@H]1[C@H](O)Cc1ccccc1 label_value="Condition not met"
compound=COc1cc2c(cc1OC)CN(C(=O)[C@@H]1[C@H]3C(=O)O[C@H](c4ccccc4)[C@H](c4ccccc4)N3[C@H](c3ccc(O)cc3)[C@@]13C(=O)Nc1ccc(C#CC4(O)CCCCCC4)cc13)CC2 label_value="Condition not met"
compound="O=C1NC(=O)C2C1C=CC(C(O)c1ccccc1)N2Nc1ccc(Cl)cc1Cl (stereo unspecified)" label_value="Condition not met"
compound="C#CCN(Cc1ccccc1Br)C(/C=C/c1ccccc1)CO (stereo unspecified)" label_value="Condition not met"
compound=C=CCOC(=O)[C@H]1[C@@H]2C(=O)O[C@@H](c3ccccc3)[C@@H](c3ccccc3)N2[C@@H](c2ccc(OCCOC(=O)[C@@H]3C[C@@H]4C(=O)N[C@@H](CCCC[N+](C)(C)C)C(=O)N4[C@@H]3c3ccc(O)cc3)cc2)[C@]12C(=O)Nc1ccccc12 label_value="Condition not met"
compound=O=C1c2ccccc2[C@](Cc2ccccc2I)(C(=O)NC2CC2)[C@H](c2ccc(CO)cc2)N1C1CCCCC1 label_value="Condition met"
compound=COCCOC(=O)N1C(=O)[C@@]2(c3cc(C#CCCO)ccc31)[C@H](C(=O)N1CCc3cc(OC)c(OC)cc3C1)[C@H]1C(=O)O[C@H](c3ccccc3)[C@H](c3ccccc3)N1[C@@H]2c1ccc(O)cc1 label_value="Condition met"
compound="O=C1C2C=CC(C(O)C3CCCCC3)N(Nc3ccc([N+](=O)[O-])cc3)C2C(=O)N1c1ccccc1 (stereo unspecified)" label_value="Condition met"
compound="[N-]=[N+]=Nc1ccccc1C[C@]1(C(=O)NCC(O)CO)N=C(c2ccc(OCCCO)cc2)O[C@H]1c1ccccc1N=[N+]=[N-] (stereo partly specified)" label_value="Condition met"
compound=C=CCNC(=O)[C@@H]1[C@H]2C(=O)O[C@H](c3ccccc3)[C@H](c3ccccc3)N2[C@H](c2ccccc2OCCO)[C@@]12C(=O)N(C(=O)OCCOC)c1ccc(C#CCNC(N)=O)cc12 label_value="Condition met"
compound=COCCOC(=O)N1C(=O)[C@@]2(c3cc(C#CC4=CCCCC4)ccc31)[C@H](C(=O)N1CCc3cc(OC)c(OC)cc3C1)[C@H]1C(=O)O[C@H](c3ccccc3)[C@H](c3ccccc3)N1[C@@H]2c1ccc(OCCO)cc1 label_value="Condition met"
compound=CC(C)C[C@@H]1NC(=O)[C@H]2C[C@@H](C(=O)NCCCCCCN(C)C)[C@@H](c3ccc(O)cc3)N2C1=O label_value="Condition not met"
compound=COc1ccc(C(=O)Nc2ccc(CN3C(=O)[C@@]4(O[C@@H](CCO)[C@H]([Si](C)(C)c5ccc(OC)cc5)[C@H]4C)c4ccccc43)cc2)cc1 label_value="Condition met"

---

composite z-score listing for selected compounds.
# assay-overview: binders of probe aFSTL3 on microarray, primary screen, stem cell growth factor project, biochemical, small-molecule microarray, fluorescence 635/667 (AID 1064);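 further: measures binding of the biotinylated anti-FSTL3 antibody to printed compounds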
# applied-conditions: higher = more signal
metric-name: composite z-score

smiles_structure=O=C(c1ccccc1)N1Cc2ccccc2[C@@H]2OC(c3ccc(OCCCO)cc3)=N[C@]2(Cc2ccccc2)C1=O metric_name="composite z-score" reported_value=-0.0231
smiles_structure=COc1ccc([Si](C)(C)[C@H]2[C@H](CCO)O[C@@]3(C(=O)N(C)c4c(Br)cc(C)cc43)[C@@H]2C)cc1 metric_name="composite z-score" reported_value=0.107
smiles_structure=COC(=O)C(CC#Cc1ccc2c(c1)[C@]1(C(=O)N2)[C@H](C(=O)O)[C@H]2C(=O)O[C@H](c3ccccc3)[C@H](c3ccccc3)N2[C@@H]1c1ccc(O)cc1)C(=O)OC metric_name="composite z-score" reported_value=0.43
smiles_structure=COC(=O)C(CC#Cc1ccc2c(c1)[C@]1(C(=O)N2)[C@H](c2ccc(O)cc2)N2[C@H](c3ccccc3)[C@H](c3ccccc3)OC(=O)[C@H]2[C@@H]1C(=O)Nc1nc2ccccc2s1)C(=O)OC metric_name="composite z-score" reported_value=-0.386

---

composite z-score listing for selected compounds.
# assay-overview: binders from COS7 lysate, DM2A8 probe, primary screen, torsin A project, cell lysate, small-molecule microarray, fluorescence 635/667 (AID 1065)
# applied-conditions: higher = more signal, COS7 lysate expressing mutant human TOR1A
metric-name: composite z-score

compound=CCOC(=O)C[C@H]1[C@H](OC(=O)c2cc3ccccc3oc2=O)[C@@H](NC(=O)Cc2ccc(OC)cc2)c2cc(OCCCO)ccc2N1C(=O)c1ccccc1 metric_name="composite z-score" reported_value=0.41
compound="COCCCNC(=O)C1N=C(c2ccc(OCCCO)cc2)N(c2ccccc2)O1 (stereo not given)" metric_name="composite z-score" reported_value=0.461
compound=C=C(CCCC)C(=O)CC[C@H](OC(C)=O)c1cccc(OCCO)c1 metric_name="composite z-score" reported_value=-0.475
compound="CN1C(=O)C2C=CC(C(O)C3CC=CCC3)N(NC(=O)OC(C)(C)C)C2C1=O (stereo not given)" metric_name="composite z-score" reported_value=0.23
compound=COCCCN1C(=O)[C@@]2(c3ccc([N+](=O)[O-])cc3)CC(=O)N(C3CCCCC3)[C@@H]2c2ccc(CO)cc21 metric_name="composite z-score" reported_value=0.178
compound="C=CCN(Cc1ccccc1)C(=O)C(c1cccs1)N(CCOCCO)C(=O)/C=C\\C(=O)O (stereo not given)" metric_name="composite z-score" reported_value=-1.43
compound=COC(=O)[C@@]1(Cc2ccccc2)[C@H]2c3cc(C(=O)N4CCCC4)n(Cc4cccc5ccccc45)c3C[C@H]2CN1C(=O)c1ccccc1 metric_name="composite z-score" reported_value=0.0848
compound=O=C1[C@H]2C=C(Br)[C@H](C[C@@H]2c2ccccc2)[C@@]12CO2 metric_name="composite z-score" reported_value=0.324
compound=CC(C)(C)OC(=O)CC[C@]12N=C(c3ccc(OCCCO)cc3)O[C@H]1c1ccccc1N(CCS(=O)(=O)c1ccccc1)C2=O metric_name="composite z-score" reported_value=0.433
compound=CCCCC(=C=CC[C@@H](O)c1ccccc1OCCO)CCO metric_name="composite z-score" reported_value=0.163
compound="CCCCC(O)C1C=CC2C(=O)N(c3ccccc3)C(=O)C2N1Nc1ccccc1F (stereo not given)" metric_name="composite z-score" reported_value=0.0488
compound=COC(=O)[C@@]1(Cc2ccc(OC)cc2)[C@H]2c3cc(C(=O)N4CCCC4)n(Cc4ccsc4Br)c3C[C@H]2CN1C(=O)c1ccccc1 metric_name="composite z-score" reported_value=-0.594
compound="CCCCN1CC=CC23O[C@@H]4C=CCOC(=O)[C@@H]4[C@H]2C(=O)N(CCCCCO)[C@@H]3C1=O (stereo not given in full)" metric_name="composite z-score" reported_value=-0.726
compound="O=C1OCCC/C=C\\[C@H]2OC34C=CCN(Cn5nnc6ccccc65)C(=O)[C@H]3N(CCO)C(=O)[C@@H]4C12 (stereo not given in full)" metric_name="composite z-score" reported_value=-1.46
compound=C=CC[C@@]1(C(=O)N(C)C)N=C(c2ccc(OCCCO)cc2)O[C@@H]1c1ccccc1N=[N+]=[N-] metric_name="composite z-score" reported_value=1.72
compound=COC(=O)c1c(CC[C@@H](CO)NC(=O)N[C@H](Cn2cc(Cc3ccccc3)nn2)C(C)C)oc(C(C)=O)c1C(=O)OC metric_name="composite z-score" reported_value=0.128
compound=COc1ccc([Si](C)(C)[C@@H]2[C@@H](CCO)O[C@]3(C(=O)N(Cc4ccc(N5C(=O)COc6ccccc65)cc4)c4ccccc43)[C@H]2C)cc1 metric_name="composite z-score" reported_value=0.408
compound=C=C[C@H](COC(C)=O)N(C(=O)OC(C)(C)C)S(=O)(=O)c1ccc(Br)cc1 metric_name="composite z-score" reported_value=0.303
compound=C=CCOC(=O)[C@H]1[C@@H]2C(=O)O[C@@H](c3ccccc3)[C@@H](c3ccccc3)N2[C@@H](c2ccc(OCCOC(=O)[C@@H]3C[C@@H]4C(=O)N[C@@H](CCCC[N+](C)(C)C)C(=O)N4[C@@H]3c3ccc(O)cc3)cc2)[C@]12C(=O)Nc1ccccc12 metric_name="composite z-score" reported_value=0.964
compound=COCCOC(=O)N1C(=O)[C@@]2(c3cc(C#Cc4ccc(OC)cc4)ccc31)[C@H](c1ccccc1OCCO)N1[C@H](c3ccccc3)[C@H](c3ccccc3)OC(=O)[C@H]1[C@@H]2C(=O)N1CCN(c2ncccn2)CC1 metric_name="composite z-score" reported_value=0.489
